- target-desc: T1, ZapC (untagged) (Escherichia coli, UniProt P75862 1-180)
- T1 construct: ZapC, Escherichia coli; also called untagged ZapC; source: E. coli, plasmid pLY28 (pE-SUMO-Amp, PT7::6×his-sumo-zapC), purified (Ni-NTA; 6×His-SUMO tag removed with Ulp1); not shown: 6×His, N-terminal, cleaved; SUMO, N-terminal, cleaved
- test-name: BLI; SUMO fusions of FtsZ or its parts, or SUMO alone (0.5 µM), held on Ni-NTA biosensors; untagged ZapC in solution; Octet-Red96, 30°C, 1× Pol buffer; apparent Kd from the signal at the end of association, one-site fit
- details: both partners purified
quantity-name: Kd (µM)
Respond numerically; units are µM and should not be typed.

Qu. What does the data say about its Kd? Entry: SUMO-FtsZ^316-383 (domain or fragment, Escherichia coli, UniProt P0A9A6 316-383, looked up, Held on Ni-NTA biosensors; plasmid construction is in the Supplemental Information; also called SUMO fusion containing the CTL and CTP; source: E. coli, purified SUMO fusion; not shown: 6×His, N-terminal, kept; SUMO, N-terminal, kept) GMDKRPEITLVTNKQVQQPVMDRYQQHGMAPLTQEQKPVAKVVNDNAPQTAKEPDYLDIPAFLRKQAD
Ans. 10
